- Tested on: PC-3
- protocol_summary: NCI tumour cell line growth inhibition, 48 h
The source made the active and inactive calls. Rule as the data show it: active = GI50 up to about 1.1 µM and inactive = higher.
Your answer must be one of the following: class 1 = active, class 0 = inactive

# input Call for entry C[C@]12CC[C@H](O)CC1=CC[C@@H]1C2CC[C@]2(C)c3n[nH]nc3CC12 (some centres not stated) :
# output class 0

# input Entry to check: CC(=O)O[C@H]1CC(C)(C)C(=C=C/C(C)=C/C=C/C=C/C=C(C)/C=C2C=C(/C=C/[C@@]34O[C@]3(C)C[C@@H](O)CC4(C)C)C(=O)O/2)[C@](C)(O)C1
# output class 0

# input Entry to check: C/C(=N/NC(=S)Nc1cccc(C)c1)c1ccccn1
# output class 1

# input Entry to check: Cn1c2c(c3ccccc31)CCN1C(=O)CCC21 (configuration not stated)
# output class 0

# input Entry to check: CN(C)C(=S)/N=c1\ssc(=S)n1Cc1cccs1
# output class 0

# input Entry to check: CS(=O)(=O)OCCCSCCSCCCOS(C)(=O)=O
# output class 0

# input Entry to check: C=C(c1ccccc1)c1ccccc1-c1cc(-c2ccccc2)cc(-c2ccccc2)n1
# output class 0

# input Entry to check: COc1cc(/C=[N+](\[O-])c2ccccc2Cl)ccc1OC(=S)S
# output class 0

# input Entry to check: O=c1oc2ccc([N+](=O)[O-])cc2cc1Br
# output class 0

# input Entry to check: O=C(NCCCCCN1CCC2(CCCCC2)CC1)C(C1CCCCC1)C1CCCCC1
# output class 0

# input Entry to check: COn1cc(C=O)c2ccccc21
# output class 0

# input Entry to check: CCC[C@H](C)[C@H]1NC(=O)[C@@H](NC(=O)[C@@H](CC(C)C)N(C)C(=O)C2CCCN2C(=O)[C@H](C)O)[C@@H](C)OC(=O)[C@H](CC(C)C)N(C)C(=O)[C@@H]2CCCN2C(=O)[C@H](CC(C)C)NC(=O)[C@@H](C)C(=O)[C@H](C(C)C)OC(=O)C[C@@H]1O (some centres not stated)
# output class 1

# input Entry to check: CCOc1ccc2nc(NC(=O)C(=O)C(c3cnc4ccccc4n3)[N+](=O)[O-])sc2c1 (configuration not stated)
# output class 0

# input Entry to check: CC(=O)O[C@@]12[C@@H]3O[C@@]4(O)C[C@]5(C)[C@H]6C[C@@](C(C)C)(O[C@H]5c5ccoc5)O[C@H]1[C@]6(C4)O[C@]2(O)C(C)=CC3(C)C
# output class 0

# input Entry to check: C[C@H]1[C@H](C)CC[C@]2(C)CC[C@]3(C)C(=C[C@@H](O)[C@@H]4[C@@]5(C)[C@H](O)[C@@H](O)[C@H](O)C(C)(C)[C@@H]5CC[C@]43C)[C@H]12
# output class 0

# input Entry to check: COC(=O)C(Cc1ccccc1)OC(=O)C(N)CC(=O)O (configuration not stated)
# output class 0

# input Entry to check: O=C(O)C1C2CC3C(OC(=O)C31)C2Br (configuration not stated)
# output class 0

###

- System: HCC 2998
- protocol_summary: NCI tumour cell line growth inhibition, 48 h
Active and inactive are the calls of the source. No stated cut-off is given here; in the data, active = GI50 up to about 1.1 µM and inactive = higher.
Would you kindly list GI50 for each of these compounds?

# input For the compound shown here, C/C(=C\c1ccccc1)n1c(=O)cc(C)n1C , give the reported GI50.
# output > 100 µM (inactive)

# input Entry to check: CON(C)c1nc(N)c(C#N)c(C#N)c1C#N
# output > 10 µM (inactive)

# input Entry to check: CCCCOCCOC1=C(Cl)C(=O)c2c(O)ccc(O)c2C1=O
# output 2.5 µM (inactive)

# input Entry to check: O=CN1CCN(C(=O)c2cc(Cl)cc(Cl)c2)C1=S
# output 17.6 µM (inactive)

# input Entry to check: CC1CC2(CC[C@@H]1O)OCCO2 (stereo not given in full)
# output > 100 µM (inactive)

# input Entry to check: CN1CCN(C)C12C=c1ccccc1=CC21CC1
# output 16.3 µM (inactive)

# input Entry to check: CC(C)(C)c1cc(COc2c3sc(=S)sc3c(OCc3cc(C(C)(C)C)cc(C(C)(C)C)c3)c3sc(=S)sc23)cc(C(C)(C)C)c1
# output > 100 µM (inactive)

# input Entry to check: OC1CC2CCCN(CCc3c1[nH]c1ccccc31)C2 (stereo not given)
# output > 100 µM (inactive)

# input Entry to check: Cn1c(=O)c2nc(CCCCc3nc4ccccc4[nH]3)[nH]c2n(C)c1=O
# output > 100 µM (inactive)

# input Entry to check: O=C([C@H](O)[C@@H](O)c1cccc(Cl)c1)C12CC3CC(CC(C3)C1)C2
# output 2.11 µM (inactive)

###

- Tested on: IGROV-1
- protocol_summary: NCI tumour cell line growth inhibition, 48 h
Calls of active or inactive are those of the source. Rule as the data show it: active = GI50 up to about 1.1 µM and inactive = higher.
Would you kindly list GI50 for each of these molecules?

# input For the molecule shown here, COc1ccc(OC)c(NC(=O)CCC/C(CC(=O)c2ccc(O)c(OC)c2)=N\Nc2nnc(C)n2N)c1 , give the reported GI50.
# output > 100 µM (inactive)

# input Entry to check: Cc1cc(C)nc(NC(P(=O)(O)O)P(=O)(O)O)n1
# output > 100 µM (inactive)

# input Entry to check: CN(C)CN(C)c1nc(N(C)C)nc(N(C)CN(C)C)n1
# output > 100 µM (inactive)

# input Entry to check: COCCOCc1nc(C#N)c(N)o1
# output > 100 µM (inactive)

# input Entry to check: COc1ccc2nc(NC(=O)C(=O)NNC(=O)c3ccncc3)sc2c1
# output > 100 µM (inactive)

# input Entry to check: COc1ccc(NC(=O)CC(=O)NN2C(=O)/C(=C/c3ccc(N(CCC#N)CCC#N)cc3C)N=C2/C=C\c2ccccc2)cc1
# output > 100 µM (inactive)

# input Entry to check: O=C(O)/C(Cl)=C(\Cl)C(=O)Nc1ccccc1
# output > 100 µM (inactive)

# input Entry to check: CC12CCC(=O)C=C1CCC1C2CCC2(C)C(C(=O)Cn3cnc4c(=S)nc[nH]c43)CCC12 (centres undefined)
# output 23.6 µM (inactive)

# input Entry to check: CN(C(=O)[C@H](NC(=O)OCc1ccccc1)c1ccccc1)C1CCCCC1N1CCCC1 (some centres undefined)
# output 70.3 µM (inactive)

# input Entry to check: CN1CCN(C)C12C=c1ccccc1=CC21CC1
# output 68.7 µM (inactive)

# input Entry to check: C=C(c1ccccc1)c1ccccc1-c1cc(-c2ccccc2)cc(-c2ccccc2)n1
# output > 100 µM (inactive)

# input Entry to check: CN(Cc1cnc2nc(N)nc(N)c2n1)c1ccc(C(=O)NC(CO)CCCO)cc1 (centres undefined)
# output > 100 µM (inactive)

# input Entry to check: C=CCC12CC(=O)CCC1c1ccc(OC)cc1C2=O (centres undefined)
# output > 100 µM (inactive)

# input Entry to check: O=C(CCl)Nc1ccc(C(=O)N/N=C/c2ccc(Cl)cc2)cc1
# output 0.728 µM (active)

# input Entry to check: Cn1c(=S)sc2nc3ccccc3n2c1=S
# output 12.8 µM (inactive)

# input Entry to check: COc1ccc(C2(O)c3ccccc3C(=O)N(C)C2(O)c2ccc(OC)cc2)cc1 (centres undefined)
# output 28.6 µM (inactive)

# input Entry to check: NNc1nncc2[nH]cnc12
# output > 100 µM (inactive)

# input Entry to check: O=C([C@H](O)[C@@H](O)c1cccc(Cl)c1)C12CC3CC(CC(C3)C1)C2
# output 1.34 µM (inactive)

# input Entry to check: Nc1ccc(N)c2c1C(=O)c1c(N)ccc(N)c1C2=O
# output > 100 µM (inactive)

# input Entry to check: N/N=C(\N)Nc1cccc2ccccc12
# output > 100 µM (inactive)

# input Entry to check: Oc1cc(-c2ccc(Cl)cc2)nc2ncccc12
# output 44.3 µM (inactive)

# input Entry to check: COc1cc2c(cc1OCCCC(=O)Nc1cc(C(=O)Nc3cc(C(=O)Nc4cc(C(=O)NCCCN(C)C)n(C)n4)n(C)n3)n(C)n1)N=CC1CCCN1C2=O (centres undefined)
# output 2.96 µM (inactive)

# input Entry to check: CCSc1nc2sc(C)c(C)c2c(=O)n1-c1ccc(C(=O)O)cc1
# output 90.8 µM (inactive)

# input Entry to check: O=C(O)c1nc(-c2ccccn2)c(-c2ccccn2)nc1C(=O)O
# output 3.5 µM (inactive)

# input Entry to check: CC(C)C1=Cc2ccc3c(c2C(=O)C1=O)CCCC3
# output 5.27 µM (inactive)

# input Entry to check: N#CC(C#N)=CNCCN1CCN(C=C(C#N)C#N)CC1
# output > 100 µM (inactive)

# input Entry to check: CC(=O)N1N=C(c2ccc3ccccc3c2O)CC1c1ccc(N(C)C)cc1 (centres undefined)
# output > 100 µM (inactive)

# input Entry to check: CC(C)=CC(C(O)c1ccccc1)S(=O)(=O)c1nccn1C (centres undefined)
# output > 100 µM (inactive)

# input Entry to check: Cn1c(=O)c2c(nc3n(CC(O)CCl)c(=O)ccn23)n(C)c1=O (centres undefined)
# output 20.8 µM (inactive)
